System: Pseudomonas aeruginosa PAE19-3
Format: cell-based
Conditions: PAE19-3
Procedure: The minimal inhibitory concentration (MIC) was determined by the broth microdilution method according to the recommended procedures of the Clinical and Laboratory Standards Institute (CLSI). An appropriate amount of the cyclic lipopeptide compounds prepared in Examples 1-120 and the reference standards were weighed and dissolved in sterile pure water. […]
Bridge positions count the residues as written; N and C are the ends. Square brackets hold non-standard residues; d marks the D form. Peptide text beside a SMILES is read from it. * marks the point of attachment. Dab(CH2SO3H) = N[C@@H](CCNCS(=O)(=O)O)C(=O)O; Heptanoyl(6-Me) = CC(C)CCCCC(=O)*; Nonanoyl = CCCCCCCCC(=O)*; Octanoyl = CCCCCCCC(=O)*; Orn = NCCC[C@H](N)C(=O)O; Dab = NCC[C@H](N)C(=O)O; Dap = NC[C@H](N)C(=O)O
endpoint label: MIC (µg/mL)
Respond with the bare value in µg/mL.

Example results:
molecule	measured on	MIC [µg/mL]
CC(C)CCCCC(=O)N[C@@H](CCN)C(=O)N[C@H](C(=O)N[C@H](CO)C(=O)N[C@H]1CCNC(=O)[C@H]([C@@H](C)O)NC(=O)[C@H](CCN)NC(=O)[C@H](CCN)NC(=O)[C@H]([C@@H](C)O)NC(=O)[C@@H](Cc2ccccc2)NC(=O)[C@H](CCNCS(=O)(=O)O)NC1=O)[C@@H](C)O [Compound 109] ({Heptanoyl(6-Me)}-[Dab]T[dS][Dab][Dab(CH2SO3H)][dF]T[Dab][Dab]T; lactam 4-C)	Pseudomonas aeruginosa PAE19-3	0.5
CC(C)CCCCC(=O)N[C@@H](CCN)C(=O)N[C@H](C(=O)N[C@H](CO)C(=O)N[C@H]1CCNC(=O)[C@H]([C@@H](C)O)NC(=O)[C@H](CN)NC(=O)[C@H](CCN)NC(=O)[C@H]([C@@H](C)O)NC(=O)[C@@H](Cc2ccccc2)NC(=O)[C@H](CCN)NC1=O)[C@@H](C)O [Compound 82] ({Heptanoyl(6-Me)}-[Dab]T[dS][Dab][Dab][dF]T[Dab][Dap]T; lactam 4-C)	Pseudomonas aeruginosa PAE19-3	64
CCCCCCCCC(=O)N[C@@H](CCN)C(=O)N[C@H](C(=O)N[C@@H](CN)C(=O)N[C@H]1CCNC(=O)[C@H]([C@@H](C)O)NC(=O)[C@H](CCN)NC(=O)[C@H](CCN)NC(=O)[C@H]([C@@H](C)O)NC(=O)[C@@H](Cc2ccccc2)NC(=O)[C@H](CCN)NC1=O)[C@@H](C)O [Compound 10] (Nonanoyl-[Dab]T[Dap][Dab][Dab][dF]T[Dab][Dab]T; lactam 4-C)	Pseudomonas aeruginosa PAE19-3	0.5
CCCCCCCC(=O)N[C@@H](CCN)C(=O)N[C@H](C(=O)N[C@H](CO)C(=O)N[C@H]1CCNC(=O)[C@H]([C@@H](C)O)NC(=O)[C@H](CCCN)NC(=O)[C@H](CCN)NC(=O)[C@H]([C@@H](C)O)NC(=O)[C@@H](Cc2ccccc2)NC(=O)[C@H](CCN)NC1=O)[C@@H](C)O [Compound 88] (Octanoyl-[Dab]T[dS][Dab][Dab][dF]T[Dab][Orn]T; lactam 4-C)	Pseudomonas aeruginosa PAE19-3	64

Notebook: pull reported MIC for Pseudomonas aeruginosa PAE19-3, entry CCCCCCCC(=O)N[C@@H](CCN)C(=O)N[C@H](C(=O)N[C@@H](CCCN)C(=O)N[C@H]1CCNC(=O)[C@H]([C@@H](C)O)NC(=O)[C@H](CCN)NC(=O)[C@H](CCN)NC(=O)[C@H](CC(C)C)NC(=O)[C@@H](Cc2ccccc2)NC(=O)[C@H](CCN)NC1=O)[C@@H](C)O [Compound 48] (Octanoyl-[Dab]T[Orn][Dab][Dab][dF]L[Dab][Dab]T; lactam 4-C)
0.25
